Molecular target: T1, hFGFR3-Fc (human, UniProt P22607 23-375)
T1 construct: extracellular domain; Bought from R&D Systems; not shown: Fc domain of human IgG1
T1 sequence (looked up): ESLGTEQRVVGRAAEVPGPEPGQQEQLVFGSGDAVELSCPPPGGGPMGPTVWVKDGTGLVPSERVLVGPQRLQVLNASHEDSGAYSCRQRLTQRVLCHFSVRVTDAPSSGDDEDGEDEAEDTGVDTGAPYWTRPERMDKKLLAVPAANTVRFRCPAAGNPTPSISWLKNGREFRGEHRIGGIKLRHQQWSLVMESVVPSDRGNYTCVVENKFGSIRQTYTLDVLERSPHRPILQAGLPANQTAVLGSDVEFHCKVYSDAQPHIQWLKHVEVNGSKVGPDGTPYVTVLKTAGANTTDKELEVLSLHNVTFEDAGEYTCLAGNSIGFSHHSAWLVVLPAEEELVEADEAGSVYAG
Experiment: phage Fab ELISA on coated antigen, anti-M13 detection
Reported Endpoint: ELISA signal (OD, 450 nm) (OD 450 nm)
// return numeric value only (unit: OD 450 nm, not printed)

Sample clone 36 in the Fab format displayed on phage (Fab, V domains shown) VH: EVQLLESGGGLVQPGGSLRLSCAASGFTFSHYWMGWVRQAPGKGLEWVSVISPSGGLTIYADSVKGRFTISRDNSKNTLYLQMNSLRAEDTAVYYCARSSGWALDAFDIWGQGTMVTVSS VL: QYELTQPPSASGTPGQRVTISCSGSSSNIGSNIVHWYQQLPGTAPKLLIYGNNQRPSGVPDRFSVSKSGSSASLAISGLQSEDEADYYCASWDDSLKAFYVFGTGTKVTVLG ; ELISA signal (OD, 450 nm) observed: -0.02

ELISA signal (OD, 450 nm) reported for this binder clone 31 in the Fab format displayed on phage (Fab, V domains shown) VH: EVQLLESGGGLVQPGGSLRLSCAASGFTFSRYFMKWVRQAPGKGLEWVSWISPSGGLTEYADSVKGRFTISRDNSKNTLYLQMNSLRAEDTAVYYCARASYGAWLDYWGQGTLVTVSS VL: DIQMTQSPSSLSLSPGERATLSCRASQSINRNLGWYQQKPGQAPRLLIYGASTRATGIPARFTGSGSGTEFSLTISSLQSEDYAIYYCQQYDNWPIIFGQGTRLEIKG : 0.01

So for clone 8 in the Fab format displayed on phage (Fab, V domains shown) VH: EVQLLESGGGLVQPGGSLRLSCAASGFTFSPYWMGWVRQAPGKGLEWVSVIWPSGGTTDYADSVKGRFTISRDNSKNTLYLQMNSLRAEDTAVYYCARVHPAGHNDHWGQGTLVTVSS VL: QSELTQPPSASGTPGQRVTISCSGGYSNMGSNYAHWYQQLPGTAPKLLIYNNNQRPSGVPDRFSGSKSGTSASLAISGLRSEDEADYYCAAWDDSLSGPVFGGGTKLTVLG , the logged ELISA signal (OD, 450 nm) turned out to be 0

Summary for this binder, clone 33 in the Fab format displayed on phage (Fab, V domains shown) VH: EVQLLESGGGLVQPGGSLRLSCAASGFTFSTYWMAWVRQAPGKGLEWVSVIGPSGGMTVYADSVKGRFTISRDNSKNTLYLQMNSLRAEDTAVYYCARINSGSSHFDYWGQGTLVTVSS VL: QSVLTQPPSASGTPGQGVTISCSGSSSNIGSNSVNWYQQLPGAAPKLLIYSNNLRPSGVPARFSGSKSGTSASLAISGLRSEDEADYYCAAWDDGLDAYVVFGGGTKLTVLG : ELISA signal (OD, 450 nm) is -0.01
